Value source: ChEMBL document CHEMBL1255179

Biological target: Fatty acid synthase (Gallus gallus)
Assay: Inhibition of FAS at 1000 uM
parameter: IC50

Q: Please give the measured IC50 for this compound: Oc1cc(O)c2c(c1)O[C@@H](c1ccc(O)c(O)c1)[C@@H](O)C2 [(+)-EPICATECHIN]
Result: > 1000 µM

---

Molecular target: Fatty acid synthase (Gallus gallus)
Experiment: Inhibition of FAS
pIC50: −log10 of the molar value.
Criterion: pIC50 meeting or surpassing 5. Met: true. Not met: false.

Consider the following illustrative entries.
Q: In plain terms: is recorded pIC50 at least 5 for COc1c(O)cc2oc3cc4c(c(O)c3c(=O)c2c1CC=C(C)C)C=CC(C)(C)O4 [MANGOSTANIN] ?
Result: false

Q: Quick check: does COc1c(O)cc2oc3cc(O)c(CC=C(C)C)c(O)c3c(=O)c2c1CC=C(C)C [MANGOSTIN] have pIC50 greater than or equal to 5?
Result: true

Q: Please indicate if the recorded pIC50 for "COc1cc2oc3cc(O)c(OC)c(CC=C(C)C)c3c(=O)c2c(O)c1CC=C(C)C" meets or exceeds 5.
Result: false

Q: Hi team, for "O=c1c2cc(O)ccc2oc2cc(O)cc(O)c12" , is the recorded pIC50 at or above 5?
Result: false

Next up:
Q: Assess whether reported pIC50 for CC(C)=CCc1c(O)cc2oc3c(CC=C(C)C)c(O)c(O)c(CC=C(C)C)c3c(=O)c2c1O [GARCINONE E] sits at 5 or higher.
Result: true
